tgt: Carboxylic ester hydrolase (Sus scrofa) (UniProt A0A286ZKB1)
Sequence (A0A286ZKB1 as listed by the source): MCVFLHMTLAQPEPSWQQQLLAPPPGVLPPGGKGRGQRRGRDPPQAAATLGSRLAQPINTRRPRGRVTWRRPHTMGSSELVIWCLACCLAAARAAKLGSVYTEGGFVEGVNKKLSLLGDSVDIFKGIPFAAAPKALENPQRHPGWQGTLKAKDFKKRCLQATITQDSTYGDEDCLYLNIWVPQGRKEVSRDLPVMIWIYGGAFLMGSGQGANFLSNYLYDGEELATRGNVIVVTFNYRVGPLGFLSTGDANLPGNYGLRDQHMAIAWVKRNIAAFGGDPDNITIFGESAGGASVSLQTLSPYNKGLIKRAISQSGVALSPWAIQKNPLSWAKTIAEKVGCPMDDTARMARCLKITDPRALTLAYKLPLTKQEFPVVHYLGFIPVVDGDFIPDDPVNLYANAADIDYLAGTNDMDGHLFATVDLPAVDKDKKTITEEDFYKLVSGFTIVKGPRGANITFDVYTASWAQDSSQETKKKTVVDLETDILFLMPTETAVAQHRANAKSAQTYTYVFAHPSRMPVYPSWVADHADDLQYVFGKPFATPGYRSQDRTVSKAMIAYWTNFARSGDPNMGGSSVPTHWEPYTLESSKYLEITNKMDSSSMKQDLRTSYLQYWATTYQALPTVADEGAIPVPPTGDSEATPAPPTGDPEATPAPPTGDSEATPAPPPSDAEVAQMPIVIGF
protocol notes: Inhibition of porcine cholesterol esterase at 1 nM using para-nitrophenyl butyrate as substrate after 5 mins in presence of sodium taurocholate by spectrophotometric method relative to control
Here, each record is paired with measured inhibition data.
endpoint label: inhibition (%)

[[record]]
molecule_smiles = "O=c1cc(-c2ccc(F)cc2)oc2c1ccc1ccccc12"
tgt = "Carboxylic ester hydrolase (Sus scrofa) (UniProt A0A286ZKB1)"
result = 46

[[record]]
molecule_smiles = "O=c1cc(-c2cc(F)cc(F)c2)oc2c1ccc1ccccc12"
tgt = "Carboxylic ester hydrolase (Sus scrofa) (UniProt A0A286ZKB1)"
result = 60

[[record]]
molecule_smiles = "O=c1cc(-c2cc(C(F)(F)F)cc(C(F)(F)F)c2)oc2c1ccc1ccccc12"
tgt = "Carboxylic ester hydrolase (Sus scrofa) (UniProt A0A286ZKB1)"
result = 21

[[record]]
molecule_smiles = "O=c1cc(-c2ccc(F)c(F)c2)oc2c1ccc1ccccc12"
tgt = "Carboxylic ester hydrolase (Sus scrofa) (UniProt A0A286ZKB1)"
result = 48

[[record]]
molecule_smiles = "CN(C)c1ccc(-c2cc(=O)c3ccc4ccccc4c3o2)cc1"
tgt = "Carboxylic ester hydrolase (Sus scrofa) (UniProt A0A286ZKB1)"
result = 9


----------
Listing of entries alongside the reported inhibition.
tgt: Carboxylic ester hydrolase (Sus scrofa) (UniProt A0A286ZKB1)
protocol notes: Inhibition of porcine cholesterol esterase at 10 nM using para-nitrophenyl butyrate as substrate after 5 mins in presence of sodium taurocholate by spectrophotometric method relative to control
endpoint label: inhibition (%)

[[record]]
molecule = "O=c1cc(-c2ccccc2Br)oc2c1ccc1ccccc12"
result = 79

[[record]]
molecule = "O=c1cc(-c2ccc(OC(F)(F)F)cc2)oc2c1ccc1ccccc12"
result = 35

[[record]]
molecule = "COc1ccc(-c2cc(=O)c3ccc4ccccc4c3o2)c(OC)c1"
result = 21

[[record]]
molecule = "O=c1cc(-c2c(F)cccc2F)oc2c1ccc1ccccc12"
result = 83

[[record]]
molecule = "COc1ccc(-c2cc(=O)c3ccc4ccccc4c3o2)cc1"
result = 22

[[record]]
molecule = "CN(C)c1ccc(-c2cc(=O)c3ccc4ccccc4c3o2)cc1"
result = 18

[[record]]
molecule = "O=c1cc(-c2ccc(F)cc2F)oc2c1ccc1ccccc12"
result = 80

[[record]]
molecule = "O=c1cc(-c2cccc([N+](=O)[O-])c2)oc2c1ccc1ccccc12"
result = 71

[[record]]
molecule = "O=c1cc(-c2ccc(F)c(C(F)(F)F)c2)oc2c1ccc1ccccc12"
result = 43

[[record]]
molecule = "O=c1cc(-c2cc(F)ccc2C(F)(F)F)oc2c1ccc1ccccc12"
result = 41

[[record]]
molecule = "CC(=O)Oc1ccc(-c2cc(=O)c3ccc4ccccc4c3o2)cc1"
result = 34

[[record]]
molecule = "O=c1cc(-c2cccc(OC(F)(F)F)c2)oc2c1ccc1ccccc12"
result = 32

[[record]]
molecule = "O=c1cc(-c2cccc(Br)c2)oc2c1ccc1ccccc12"
result = 73

[[record]]
molecule = "O=c1cc(-c2ccccc2C(F)(F)F)oc2c1ccc1ccccc12"
result = 36

[[record]]
molecule = "O=c1cc(-c2ccccc2F)oc2c1ccc1ccccc12"
result = 81

[[record]]
molecule = "O=c1cc(-c2ccccc2)oc2c1ccc1ccccc12 [ALPHA-NAPHTHOFLAVONE]"
result = 40

[[record]]
molecule = "O=c1cc(-c2cccc(Cl)c2)oc2c1ccc1ccccc12"
result = 80

[[record]]
molecule = "O=c1cc(-c2c(F)cccc2C(F)(F)F)oc2c1ccc1ccccc12"
result = 52

[[record]]
molecule = "O=c1cc(-c2ccc(F)c(F)c2)oc2c1ccc1ccccc12"
result = 76

[[record]]
molecule = "O=c1cc(-c2ccccc2I)oc2c1ccc1ccccc12"
result = 78

[[record]]
molecule = "O=c1cc(-c2ccc(F)cc2C(F)(F)F)oc2c1ccc1ccccc12"
result = 44

[[record]]
molecule = "O=c1cc(-c2cc([N+](=O)[O-])cc([N+](=O)[O-])c2)oc2c1ccc1ccccc12"
result = 72

[[record]]
molecule = "O=c1cc(-c2cc(C(F)(F)F)cc(C(F)(F)F)c2)oc2c1ccc1ccccc12"
result = 34


Attribution: ChEMBL document CHEMBL4002634
